Taken from patent US20240101683A1.

target of assay: T1, Human FGFR2βIIIb (human, UniProt P21802-21 22-263, limits assumed)
T1 construct: Construct used in the ELISA (tag, Fc, limits) is not described
T1 sequence (P21802 other isoform, or with tags, fused parts or gaps limits assumed): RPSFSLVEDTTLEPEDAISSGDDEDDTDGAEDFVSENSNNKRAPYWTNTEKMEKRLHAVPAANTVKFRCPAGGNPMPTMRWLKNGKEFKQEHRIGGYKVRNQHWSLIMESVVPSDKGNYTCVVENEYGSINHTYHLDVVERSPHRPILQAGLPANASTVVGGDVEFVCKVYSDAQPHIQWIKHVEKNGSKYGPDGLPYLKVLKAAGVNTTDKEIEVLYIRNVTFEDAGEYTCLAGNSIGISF
run description: ELISA, coated antigen, anti-Fab HRP
quantity name: EC50 (nM)
Please reply with the bare figure in nM and do not write the unit itself.

binder	EC50, nM
FWB1914 (antibody, V domains shown) VH: QVQLVQSGAEVKKPGSSVKVSCKASGYIFTSYNVHWVRQAPGQGLEWIGSIYPDNGDSSYNNNYKGRATITADKSTSTAYMELSSLRSEDTAVYYCARGDFAYWGQGTLVTVSS VL: DIQMTQSPSSLSASVGDRVTITCKASNGVSNDIAWYQQKPGKAPKLLIYSASYRYSGVPSRFSGSGSGTDFTFTISSLQPEDIATYYCQQHSTTPYTFGQGTKLEIKR	0.203
FWB1918 (antibody, V domains shown) VH: QVQLVQSGAEVKKPGSSVKVSCKASGYIFTSYNVHWVRQAPGQGLEWIGSIYPDNGDSSYNQNFRGRATITADKSTSTAYMELSSLRSEDTAVYYCARGDFAYWGQGTLVTVSS VL: DIQMTQSPSSLSASVGDRVTITCKGSNGISNDIAWYQQKPGKAPKLLIYSASYRYSGVPSRFSGSGSGTDFTFTISSLQPEDIATYYCQQHSTTPYTFGQGTKLEIK	0.135
FWB1908 (antibody, V domains shown) VH: QVQLVQSGAEVKKPGSSVKVSCKASGYIFTTYNVHWVRQAPGQGLEWIGSIYPDNGDSTYNQNFKGRATITADKSTSTAYMELSSLRSEDTAVYYCARGDFAYWGQGTLVTVSS VL: DIQMTQSPSSLSASVGDRVTITCKGSQGVSNDVAWYQQKPGKAPKLLIYSASYRYTGVPSRFSGSGSGTDFTFTISSLQPEDIATYYCQQHSTTPYTFGQGTKLEIK	0.126
FWB1912 (antibody, V domains shown) VH: QVQLVQSGAEVKKPGSSVKVSCKASGYIFTSYNVHWVRQAPGQGLEWIGSIYPDNGDSSYNQNYKGRATITADKSTSTAYMELSSLRSEDTAVYYCARGDYAYWGQGTLVTVSS VL: DIQMTQSPSSLSASVGDRVTITCKASNGVSNDIAWYQQKPGKAPKLLIYSASYRYSGVPSRFSGSGSGTDFTFTISSLQPEDIATYYCQQHSTTPYTFGQGTKLEIK	0.207
FWB1910 (antibody, V domains shown) VH: QVQLVQSGAEVKKPGSSVKVSCKASGYIFTTYNVHWVRQAPGQGLEWIGSIYPDNGDTSYDEDFKGRATITADKSTSTAYMELSSLRSEDTAVYYCARGDFAYWGQGTLVTVSS VL: DIQMTQSPSSLSASVGDRVTITCKVSQGVSNDAVWYQQKPGKAPKLLIYSASYRYTGVPSRFSGSGSGTDFTFTISSLQPEDIATYYCQQHSTTPYTFGQGTKLEIK	0.21
FWB1911 (antibody, V domains shown) VH: QVQLVQSGAEVKKPGSSVKVSCKASGYIFTSYNVHWVRQAPGQGLEWIGSIYPDNGDSSYNQNYKGRATITADKSTSTAYMELSSLRSEDTAVYYCARGDFAYWGQGTLVTVSS VL: DIQMTQSPSSLSASVGDRVTITCKASNGVSNDIAWYQQKPGKAPKLLIYSASYRYSGVPSRFSGSGSGTDFTFTISSLQPEDIATYYCQQHSTTPYSFGQGTKLEIK	0.246
FWB1920 (antibody, V domains shown) VH: QVQLVQSGAEVKKPGSSVKVSCKASGYIFTSYNIHWVRQAPGQGLEWIGSIYPDNGDSSYNQNYRGRATITADKSTSTAYMELSSLRSEDTAVYYCARGDFAYWGQGTLVTVSS VL: DIQMTQSPSSLSASVGDRVTITCKGSNGVSNDIAWYQQKPGKAPKLLIYSASYRYSGVPSRFSGSGSGTDFTFTISSLQPEDIATYYCQQHSTTPYTFGQGTKLEIK	0.153
FWB1919 (antibody, V domains shown) VH: QVQLVQSGAEVKKPGSSVKVSCKASGYIFTSYNVHWVRQAPGQGLEWIGSIYPDNGDSSYNQNYRGRATITADKSTSTAYMELSSLRSEDTAVYYCARGDFAYWGQGTLVTVSS VL: DIQMTQSPSSLSASVGDRVTITCRGSNGISNDIAWYQQKPGKAPKLLIYSASYRYSGVPSRFSGSGSGTDFTFTISSLQPEDIATYYCQQHSTTPYTFGQGTKLEIK	0.149
FWB1925 (antibody, V domains shown) VH: QVQLVQSGAEVKKPGSSVKVSCKASGYIFTSYNVHWVRQAPGQGLEWIGSIYPDNGDSTYDEDYRGRATITADKSTSTAYMELSSLRSEDTAVYYCARGDFAYWGQGTLVTVSS VL: DIQMTQSPSSLSASVGDRVTITCKGSNGISNDIAWYQQKPGKAPKLLIYSASYRYSGVPSRFSGSGSGTDFTFTISSLQPEDIATYYCQQHSTTPYTFGQGTKLEIK	0.173

Let's switch to this binder now.
Please fill in: EC50 reported for FWB1904 (antibody, V domains shown) VH: QVQLVQSGAEVKKPGSSVKVSCKASGYIFTSYNVHWVRQAPGQGLEWIGSIYPDNGDTSYNQNFRGRATITADKSTSTAYMELSSLRSEDTAVYYCARGDFAYWGQGTLVTVSS VL: DIQMTQSPSSLSASVGDRVTITCKASNGISNDIAWYQQKPGKAPKLLIYSASYRYSGVPSRFSGSGSGTDFTFTISSLQPEDIATYYCQQHSTTPYTFGQGTKLEIK = 0.163
